Tested on: Hep G2 cells
PROTOCOL_SUMMARY: In vitro toxicity (CellTiter-Glo cell viability), Hep G2;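 note: percent of untreated cells luminescence signal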
Format: cell-based
CONDITION_LABEL: cirRNA (SEQ ID NO: 1) LNPs; Hep G2 cells
Recorded In vitro Viability HepG2 for the following molecules
Report as a plain number; the unit % is understood.

- MOLECULE: "CCCCC/C=C\\CCOC(=O)CCCCCN(CCCCCCCCOC(=O)C(CCCCCC)CCCCCCCC)CCOC(=O)NCCN(C)C (stereo not shown) [Lipid 189]"
  TARGET: "Hep G2 cells"
  In vitro Viability HepG2, %: 89
- MOLECULE: "CCCCC/C=C\\CCOC(=O)CCCCCN(CCCCCCCCOC(=O)C(CCCCCC)CCCCCCCC)CCOC(=O)NCc1ncc[nH]1 (stereo not shown)"
  TARGET: "Hep G2 cells"
  In vitro Viability HepG2, %: 90
- MOLECULE: "CCCCCCCCC(CCCCCC)C(=O)OCCCCCCCCN(CCCCCCCCOC(=O)C(CCCCCC)CCCCCCCC)CCCOC(=O)NCCN1CCCCC1 (stereo not shown)"
  TARGET: "Hep G2 cells"
  In vitro Viability HepG2, %: 89

Kindly consider the entry below.
Task: Which value of In vitro Viability HepG2 has been reported for CCCCC/C=C\CCOC(=O)CCCCCN(CCCCCCCCOC(=O)C(CCCCCC)CCCCCCCC)CCOC(=O)NCCN1CCCC1 (stereo not shown) in the records?
Output: 92

###

Recorded In vitro Viability HepG2 for the following compounds
Test system: Hep G2 cells
PROTOCOL_SUMMARY: In vitro toxicity (CellTiter-Glo cell viability), Hep G2;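 note: percent of untreated cells luminescence signal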
Type: cell-based
CONDITION_LABEL: cirRNA (SEQ ID NO: 1) LNPs; Hep G2 cells
State the value, then name its unit.

Reference set (2 entries):
- COMPOUND: "CCCCCCCCCC(=O)OCCCCCCCN(CCCCCCCCOC(=O)C(CCCCCC)CCCCCCCC)CCCOC(=O)NCCN1CCCC1 (stereo not drawn)"
  TARGET: "Hep G2 cells"
  OBSERVED: "120%"
- COMPOUND: "CCCCCCCCCCC(CCCCCCCC)COC(=O)CCCCCN(CCCCCC(=O)OCC(CCCCCCCC)CCCCCCCCCC)CCCOC(=O)NCCNC(C)C (stereo not drawn)"
  TARGET: "Hep G2 cells"
  OBSERVED: "68%"

Kindly consider the entry below.
Task: Which value of In vitro Viability HepG2 has been reported for CCCCCCCCC(CCCCCC)C(=O)OCCCCCCCCN(CCCCCCCCOC(=O)C(CCCCCC)CCCCCCCC)CCOC(=O)NCCN(C)C (stereo not drawn) in the records?
Output: 89%

###

PROTOCOL_SUMMARY: LNP size and polydispersity index (PDI) by dynamic light scattering
Format: physicochemical
CONDITION_LABEL: LNP with mRNA (SEQ ID NO: 2)
ENDPOINT_LABEL: PDI
Please reply with the value in numeric form only.

Reference set (3 entries):
- MOLECULE: "CCCCCCCCCCCOC(=O)CCCCCN(CCCCCCCC(=O)OC(CCCCCCCC)CCCCCCCC)CCOC(=O)NCCN1CCCCC1 [Lipid 165]"
  PDI: 0.1265
- MOLECULE: "CCCCC/C=C\\C/C=C\\CCCCCCCCN(CCCCCCCC(=O)OC(CCCCCCCC)CCCCCCCC)CCOC(=O)NCCN1CCCCC1 [Lipid 127]"
  PDI: 0.1822
- MOLECULE: "CCCCCCCCC(CCCCCCCC)OC(=O)CCCCCCCN(CCCCCCCCOC(=O)C(CCCCCC)CCCCCCCC)CCCOC(=O)NCCN1CCCCC1 (stereo not shown) [Lipid 351]"
  PDI: 0.3512

Task: Which value of PDI has been reported for CCCCC/C=C\C/C=C\CCCCCCCCN(CCCCCCCC(=O)OC(CCCCCCCC)CCCCCCCC)CCCOC(=O)NCCCn1ccnc1 [Lipid 276] in the records?
Output: 0.07602

Task: Now give it for CCCCCCCCC(CCCCCC)C(=O)OCCCCCCCCN(CCCCCCCCOC(=O)C(CCCCCC)CCCCCCCC)CCCOC(=O)NCCCN(CC)CC (stereo not shown) [Lipid 376] too.
Output: 0.07745

Task: Now give it for CCCCCCCCCC(=O)OCCCCCCCN(CCCCCCCCOC(=O)C(CCCCCC)CCCCCCCC)CCOC(=O)NCCN1CCCC1 (stereo not shown) [Lipid 195] too.
Output: 0.1254

Task: Now give it for CCCCCCCCC(CCCCCC)C(=O)OCCCCCCCCN(CCCCCCCCOC(=O)C(CCCCCC)CCCCCCCC)CCCOC(=O)NCCN1CCCCC1 (stereo not shown) [Lipid 380] too.
Output: 0.02507

Task: Now give it for CCCCC/C=C\CCOC(=O)CCCCCN(CCCCCC(=O)OCC(CCCCCCCC)CCCCCCCCCC)CCOC(=O)NCCN1CCCCC1 (stereo not shown) [Lipid 245] too.
Output: 0.1109

Task: Now give it for CCCCC/C=C\C/C=C\CCCCCCCCN(CCCCCC(=O)OCCCCCCCCCCC)CCOC(=O)NCc1ncc[nH]1 [Lipid 90] too.
Output: 0.06127

Task: Now give it for CCCCC/C=C\C/C=C\CCCCCCCCN(CCCCCCCC(=O)OC(CCCCCCCC)CCCCCCCC)CCOC(=O)NCCCN(CC)CC [Lipid 131] too.
Output: 0.1606

Task: Now give it for CCCCCCCCCC(=O)OCCCCCCCN(CCCCCCCCOC(=O)C(CCCCCC)CCCCCCCC)CCOC(=O)NCCN1CCCCC1 (stereo not shown) [Lipid 196] too.
Output: 0.1806

Task: Now give it for CCCCCCCCCCC(CCCCCCCC)COC(=O)CCCCCN(CCCCCC(=O)OCC(CCCCCCCC)CCCCCCCCCC)CCCOC(=O)NCCN1CCCCC1 (stereo not shown) [Lipid 370] too.
Output: 0.1494

Task: Now give it for CCCCCCCCCCC(CCCCCCCC)COC(=O)CCCCCN(CCCCCC(=O)OCC(CCCCCCCC)CCCCCCCCCC)CCCOC(=O)NCCN1CCCC1 (stereo not shown) [Lipid 369] too.
Output: 0.1166

###

System: Hep G2 cells
PROTOCOL_SUMMARY: In vitro toxicity (CellTiter-Glo cell viability), Hep G2;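 note: percent of untreated cells luminescence signal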
Format: cell-based
CONDITION_LABEL: cirRNA (SEQ ID NO: 1) LNPs; Hep G2 cells
Recorded In vitro Viability HepG2 for the following molecules
Report as a plain number; the unit % is understood.

- MOLECULE: "CCCCCCCCCCC(CCCCCCCC)COC(=O)CCCCCN(CCCCCC(=O)OCC(CCCCCCCC)CCCCCCCCCC)CCCOC(=O)NCCN1CCCCC1 (stereo not drawn)"
  OBSERVED: 93
- MOLECULE: "CCCCCCCCC(CCCCCCCC)OC(=O)CCCCCCCN(CCCCCCCCOC(=O)C(CCCCCC)CCCCCCCC)CCCOC(=O)NCCCN(C)C (stereo not drawn)"
  OBSERVED: 65

Kindly consider the entry below.
Task: Could you share what In vitro Viability HepG2 was measured for CCCCCCCCCCC(CCCCCCCC)COC(=O)CCCCCN(CCCCCC(=O)OCC(CCCCCCCC)CCCCCCCCCC)CCOC(=O)NCCN1CCOCC1 (stereo not drawn) , tested on Hep G2 cells?
Output: 89

###

PROTOCOL_SUMMARY: LNP zeta potential (Zetasizer)
Format: physicochemical
CONDITION_LABEL: LNP with cirRNA (SEQ ID NO: 1)
ENDPOINT_LABEL: Zeta (mV)
Report as a plain number; the unit mV is understood.

Reference set (5 entries):
- COMPOUND: "CCCCC/C=C\\C/C=C\\CCCCCCCCN(CCCCCCCC(=O)OC(CCCCCCCC)CCCCCCCC)CCCOC(=O)NCCN1CCN(C)CC1"
  OBSERVED: 1.543
- COMPOUND: "CCCCC/C=C\\C/C=C\\CCCCCCCCN(CCCCCC(=O)OCCCCCCCCCCC)CCOC(=O)NCc1ncc[nH]1"
  OBSERVED: 1.34
- COMPOUND: "CCCCC/C=C\\C/C=C\\CCCCCCCCN(CCCCCCCC/C=C\\CCCCCCCC)CCOC(=O)NCCCN(CC)CC"
  OBSERVED: 16.31
- COMPOUND: "CCCCC/C=C\\C/C=C\\CCCCCCCCN(CCCCCCCC(=O)OC(CCCCCCCC)CCCCCCCC)CCOC(=O)NCCN1CCCCC1"
  OBSERVED: "−3.13"
- COMPOUND: "CCCCC/C=C\\CCOC(=O)CCCCCCCN(CCCCCCCC(=O)OCC/C=C\\CCCCC)CCOC(=O)CCCN(C)C [Lipid C, reference compound]"
  OBSERVED: "−1.304"

Task: Which value of Zeta (mV) has been reported for CCCCCCCC/C=C\CCCCCCCCN(CCCCCCCCOC(=O)C(CCCCCC)CCCCCCCC)CCOC(=O)NCCN1CCCCC1 (stereo not shown) in the records?
Output: 0.7668

Task: Now give it for CCCCC/C=C\C/C=C\CCCCCCCCN(CCCCCCCC/C=C\CCCCCCCC)CCOC(=O)NCc1ncc[nH]1 too.
Output: −0.647

Source listed as patent US12691070B2.
